- measurementDescription: chemical genetic growth profiling, strain panel (AID 1159580);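 also: tested at 20 µM; growth read once vehicle control cultures reached saturation at 30 °C; 1 = growth at the plate median or of vehicle wells; lower values mean less growth of the strain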
- conditionContext: S. cerevisiae deletion strains, growth OD, locus YBR229C, strain ROT2
In all, about 5,500 compounds went through this assay and about 2,000 (36%) were called active. Roughly 18% stayed inconclusive and do not appear here. Rule as the data show it: active = normalized growth mostly below about 0.91 (no sharp cut-off); inconclusive = no clear call, values can overlap the other calls; inactive = mostly above about 0.92. The list shows a part of the results.
Select the correct class. Options are active, inactive and nothing else.

COc1ccc(NC(=O)c2cc(C(F)(F)F)cc(C(F)(F)F)c2)cn1    inactive
CN1CCC(=C2c3ccccc3CC(=O)c3sccc32)CC1    inactive
CC(=O)NC1SCCC1=O (stereo not drawn)    inactive

# input Status in this test for CO[C@H]1[C@H](O)[C@H](O[C@H]2CC[C@]3(C)C4CC[C@]5(C)C(C6=CC(=O)OC6)CC[C@]5(O)C4CC[C@@H]3C2)O[C@@H](C)[C@@H]1O (stereo partly drawn) ?
# output inactive

# input What did the test return for C[C@]12CCC(=O)C=C1CCC1C2CC[C@@]2(C)C1CC[C@@H]2O (stereo partly drawn) ?
# output inactive

# input Would you mind telling me which call this test gave CC[C@H](/C=C/C(C)C1CCC2C3CCC4=CC(=O)CC[C@]4(C)C3CC[C@]12C)C(C)C (stereo partly drawn) ?
# output inactive

# input Write down the call the test reported for this compound. Item: CCC(=O)O[C@H]1[C@H](O[C@@H]2[C@@H](C)[C@H](O[C@H]3C[C@@](C)(OC)[C@@H](O)[C@H](C)O3)[C@@H](C)C(=O)O[C@H](CC)[C@@](C)(O)[C@H](O)[C@@H](C)C(=O)[C@H](C)C[C@@]2(C)O)O[C@H](C)C[C@@H]1N(C)C
# output inactive

----------
Here the recorded normalized growth is given for each entry.
- measurementDescription: chemical genetic growth profiling, strain panel (AID 1159580);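 also: tested at 20 µM; growth read once vehicle control cultures reached saturation at 30 °C; 1 = growth at the plate median or of vehicle wells; lower values mean less growth of the strain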
- conditionContext: S. cerevisiae deletion strains, growth OD, locus YHR129C, strain ARP1, stronger effect = lower value
The whole screen tested about 5,500 compounds, of which about 2,000 (36%) were called active. About 18% were inconclusive and are not listed. The list shows a part of the results.
// return just the number, without any unit appended

Worked set:
CNCCc1ccccn1    0.996
ClC1=C(Cl)C2(Cl)C3C(Cl)C=CC3C1(Cl)C2(Cl)Cl (stereo not drawn)    0.997
S=c1nc[nH]c2nc[nH]c12    1

normalized growth recorded for this molecule, COc1cc2c(cc1OC)C1C(=O)c3c(OC)cc4c(c3OC1CO2)CCC(C)(C)O4 (stereo not drawn) , is 1.01

Please fill in: normalized growth reported for O=C(O)c1cc2ccccc2[nH]1 = 1.01

// O=C(O)c1c2ccccc2cc2ccccc12 : normalized growth value = 1.02

Recorded result, CCOC(=O)CCC(=O)O[C@H]1[C@H](O[C@@H]2[C@@H](C)[C@H](O[C@H]3C[C@@](C)(OC)[C@@H](O)[C@H](C)O3)[C@@H](C)C(=O)O[C@H](CC)[C@@](C)(O)[C@H](O)[C@@H](C)C(=O)[C@H](C)C[C@@]2(C)O)O[C@H](C)C[C@@H]1N(C)C , normalized growth: 0.986

According to the records, this molecule CCC(C)C(OC(C)=O)C(=O)OC1C(O)C2C3(C)C=CC(=O)C(C)(C)C3CC(OC(=O)C(O)C(C)C)C2(C)C23OC2CC(c2ccoc2)C13C (stereo not drawn) displays normalized growth of 1

Short answer for C[C@]12CC(=O)C3C(CC[C@@H]4C[C@H](O)CC[C@]34C)C1CC[C@]2(O)C(=O)CO (stereo partly drawn) : normalized growth was 0.992

// sample COC1=CC(=O)C[C@@H](C)[C@]12Oc1c(Cl)c(OC)cc(OC)c1C2=O , its normalized growth was 0.996

COc1ccc2c(c1OC)C(=O)O[C@H]2[C@H]1c2cc3c(cc2CCN1C)OCO3 yielded normalized growth of 1.02

Briefly, normalized growth measured for C[C@H]1CC2C([C@@H](O)C[C@@]3(C)C2CC[C@]3(O)C(=O)CO)[C@@]2(C)C=CC(=O)C=C12 (stereo partly drawn) : 1

Record CCC(C)C(=O)O[C@H]1[C@H](O)C2C(CN3CC(C)CCC3[C@@]2(C)O)C2C[C@]34O[C@]5(O)C(OC(=O)C(C)(O)C(C)O)CC[C@@]3(C)C5C(OC(C)=O)[C@@H](OC(C)=O)C4[C@@]21O (stereo partly drawn) , field normalized growth: 1

The value of normalized growth measured for the molecule ClC1=C(Cl)C2(Cl)C3C4C=CC(C4)C3C1(Cl)C2(Cl)Cl (stereo not drawn) turned out to be 1

Data point: CN[C@@H](C)[C@@H](O)c1ccccc1 ; normalized growth = 0.994

----------
- measurementDescription: chemical genetic growth profiling, strain panel (AID 1159580);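 also: tested at 20 µM; growth read once vehicle control cultures reached saturation at 30 °C; 1 = growth at the plate median or of vehicle wells; lower values mean less growth of the strain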
- conditionContext: S. cerevisiae deletion strains, growth OD, locus YLR262C, strain YPT6 (second series), stronger effect = lower value
In all, about 5,500 compounds went through this assay and about 2,000 (36%) were called active. Roughly 18% stayed inconclusive and do not appear here. The list shows a part of the results.
measuredEndpoint: normalized growth

Before answering, review these 8 worked examples.
COc1cc(O)c(C(=O)/C=C/c2ccc(OC)c(O)c2)c(OC)c1    0.752 (active)
CCOC(=O)[C@H](CCc1ccccc1)N[C@H]1CCc2ccccc2N(CC(=O)O)C1=O    0.97 (inactive)
Oc1cc(Cl)ccc1Oc1ccc(Cl)cc1Cl    0.0751 (active)
CCCCCCNC(=O)n1cc(F)c(=O)[nH]c1=O    0.528 (active)
CC(C[N+](C)(C)C)OC(N)=O (stereo unspecified)    1.02 (inactive)
CN(C)C(=S)SSC(=S)N(C)C    0.0761 (active)
C=C1C2CC[C@H]3[C@]4(C)C[C@H](OC5OC(CO)C(OS(=O)(=O)O)C(OS(=O)(=O)O)C5OC(=O)CC(C)C)C[C@@H](C(=O)O)[C@H]4CC[C@]3(C2)[C@H]1O (stereo partly specified)    1.01 (inactive)
COc1cc(/C=C/C(=O)/C=C(O)/C=C/c2ccc(O)c(OC)c2)ccc1O    0.142 (active)

Input CN1CCC(=C2c3ccccc3CCc3sccc32)CC1 . Output normalized growth: 1.01 (inactive)

Consider COc1ccc2c(c1OC)C(=O)O[C@H]2[C@H]1c2cc3c(cc2CCN1C)OCO3 . Its measured normalized growth is 1.01 (inactive)

Item: ClC1=C(Cl)C2(Cl)C3C4C=CC(C4)C3C1(Cl)C2(Cl)Cl (stereo unspecified) | normalized growth: 0.94 (inactive)

// sample CC(=O)O[C@H]1[C@@H]2[C@@H](OC(=O)Cc3ccccc3)[C@@H](C)C[C@]2(OC(C)=O)C(=O)/C(C)=C/[C@H]2[C@H](CC[C@@]13CO3)C2(C)C , its normalized growth was 0.878 (inactive)

Form: compound = OCCN1C[C@@H](O)[C@@H](O)C(O)C1CO (stereo partly specified) ; normalized growth = 0.994 (inactive)

Recorded result, NC(=O)c1ccc[n+]([C@@H]2O[C@H](COP(=O)([O-])OP(=O)(O)OC[C@H]3O[C@@H](n4cnc5c(N)ncnc54)[C@H](O)[C@@H]3O)[C@@H](O)[C@H]2O)c1 , normalized growth: 1.05 (inactive)

The value of normalized growth measured for the compound COc1ccc2c(c1OC)C(=O)O[C@@H]2[C@H]1c2cc3c(cc2CCN1C)OCO3 turned out to be 0.98 (inactive)

GET /value?item= CC1=C(C(C)O)C2=NC1C=c1[nH]c(c(C)c1C(C)O)=Cc1[nH]c(c(CCC(=O)O)c1C)C=c1[nH]c(c(C)c1CCC(=O)O)=C2 (stereo unspecified) &field=normalized growth returns 1.06 (inactive)

Entry under test: Cc1cccc(C)c1OCC(C)N (stereo unspecified) . Its normalized growth was 1.01 (inactive)

----------
- measurementDescription: chemical genetic growth profiling, strain panel (AID 1159580);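 also: tested at 20 µM; growth read once vehicle control cultures reached saturation at 30 °C; 1 = growth at the plate median or of vehicle wells; lower values mean less growth of the strain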
- conditionContext: S. cerevisiae deletion strains, growth OD, locus YPR141C, strain kar3
The whole screen tested about 5,500 compounds, of which about 2,000 (36%) were called active. Roughly 18% stayed inconclusive and do not appear here. Rule as the data show it: active = normalized growth mostly below about 0.91 (no sharp cut-off); inconclusive = no clear call, values can overlap the other calls; inactive = mostly above about 0.92. This is one part of the list.
Response enum: active, inactive

These recorded examples may help you get a feel for the data.
CC(C(=O)O)c1ccc(-c2ccccc2)c(F)c1 (stereo not drawn)    active
C[C@H]1OC(n2cc(F)c(=O)[nH]c2=O)C(O)[C@@H]1O (stereo partly drawn)    inactive
CC(C(=O)O)c1cccc(Oc2ccccc2)c1 (stereo not drawn)    inactive

# input Identify the outcome logged in this assay for the compound shown: COC1=CC(=O)C[C@@H](C)[C@]12Oc1c(Cl)c(OC)cc(OC)c1C2=O
# output inactive

# input Test call for this compound, please: CCN(CC)CCCC(C)Nc1ccnc2cc(Cl)ccc12 (stereo not drawn)
# output inactive

# input Write down the call the test reported for this compound. Item: COc1ccc2cc([C@H](C)CO)ccc2c1
# output inactive

# input Can you look up the reported call for Cc1cc(O)c(C)c(O)c1C(=O)O for me?
# output inactive

# input Called result for COc1cc(NC(C)CCCN)c2ncccc2c1 (stereo not drawn)
# output inactive

# input State the result this test recorded for Cc1cc(O)c(C=O)c(O)c1C(=O)O .
# output inactive

# input Look up the recorded call for CN(C)C(=S)SSC(=S)N(C)C in this test.
# output active

# input Assay result, entry CCN(CCO)CCCC(C)Nc1ccnc2cc(Cl)ccc12 (stereo not drawn) — outcome?
# output inactive

# input Called result for COc1ccc2cc([C@H](C)C(=O)O)ccc2c1
# output inactive

# input Lab log entry: CCOC(=O)c1c(C)cc(O)c(C)c1O — outcome as called in the assay?
# output inactive

All figures here come from PubChem BioAssay AID1159580.
